# Test system: Trypanosoma brucei
# Protocol: Trypanosoma brucei 72 hour study
# Type: functional, organism-based
# Design: scale not given: in the data most compounds retested in dose-response had high values
# Test Conditions: 30 µM; 30.03 µM
In all, about 66,000 compounds went through this assay and about 960 (1.5%) showed an effect of 50% or more. For the sample, strong results were picked, then their nearest neighbours and some compounds at random.
Hi there, I'd appreciate the recorded Percent Effect for every entry that follows.
Give bare numbers, in %.

Some compounds with recorded Percent Effect:
INSERT INTO assay_data (test_smiles, outcome_measure, units_label, reported_value) VALUES
  ('C1CCN(CCO[C@@H]2CC[C@H]3[C@H]2OCCN3CC2CCOCC2)C1.O=C(O)C(F)(F)F.O=C(O)C(F)(F)F', 'Percent Effect', '%', -27.36),
  ('COc1ccc2c(c1)nc1n2[C@@H](CNC(=O)c2ccccn2)COC1', 'Percent Effect', '%', -12.62),
  ('O[C@@H]1CN(c2cnc3ccccc3n2)CC[C@H]1c1ccc2c(c1)OCO2', 'Percent Effect', '%', -17.33);

Could you now look at the following compound, please?
Exam item: Report Percent Effect for Cc1cccc(CN2C[C@@H]3COC[C@]3(CNC(=O)c3cccn3C)C2)n1.O=C(O)C(F)(F)F.O=C(O)C(F)(F)F please.
Marked response: 12.67

====

# Tested on: Trypanosoma brucei
# Protocol: Trypanosoma brucei 72 hour study
# Assay type: functional, organism-based
# Design: scale not given: in the data most compounds retested in dose-response had high values
# Test Conditions: 30.3 µM; […]
Screen size: about 66,000 compounds; about 960 (1.5%) showed an effect of 50% or more. Many of the other results were omitted from the sample, so strong results are more common in it than they were.
For each of the compounds below, state its Percent Effect.
One number for each entry, in %.

INSERT INTO measurements (compound, reported_value) VALUES
  ('CCCNC(=O)c1nn(CC)cc1NC(=O)c1cn(C)nc1C', 26.24),
  ('NC(=O)CN1CCC(c2csc(Nc3cnccn3)n2)CC1', 30.88),
  ('c1cnc(Nc2cncc(C3CCCN(c4ncccn4)C3)n2)nc1 (stereo not drawn)', -5.193),
  ('CCn1cc(NC(=O)c2c(C)nn(C)c2C)c(C(N)=O)n1', 53.08),
  ('COCCN1C2(CCN(Cc3nccs3)C2)c2ccccc2S1(=O)=O.O=C(O)C(F)(F)F (stereo not drawn)', -203.3);

Please give Percent Effect, item by item, for the list that follows.
1. C1CCC(CNC2CCCN(Cc3noc(C4CC4)n3)C2)C1 (stereo not drawn)
2. CC(C)CCN1C2(CCN(Cc3nccs3)C2)c2ccccc2S1(=O)=O.O=C(O)C(F)(F)F (stereo not drawn)
3. CO[C@@H]1CCN(C(=O)Cc2ccc(F)cc2)[C@@H]1Cc1cccnc1.O=C(O)C(F)(F)F
4. Cl.O=C(NCCO)C1(Cc2ccccc2-c2cccnc2)CCOCC1
5. CCCNC(=O)c1nn(CC)cc1NC(=O)c1c(C)nn(C)c1C
6. O=C(O)C(F)(F)F.c1csc(CN2C[C@H](OCC3CCOCC3)[C@H]3COC[C@H]32)n1

Marked response:
26.01
91.13
-10.6
-4.855
45.33
-15.06

For each of the compounds below, note its Percent Effect.
1. COCc1nc(C(=O)NS(=O)(=O)c2c(C)c(C)cc(C)c2C)cs1
2. Cc1nc(N2CCCCC2)ncc1-c1cc(O)nc(N2CCCCC2)n1
3. Cc1cccc(CN2CCO[C@@H]3CC(COc4ccccn4)C[C@H]32)n1.O=C(O)C(F)(F)F.O=C(O)C(F)(F)F (stereo partly drawn)
4. O=C(c1ccncc1)N1CCC(Oc2cccc(C(F)(F)F)c2)CC1
5. CC(C)(C)c1cnc(CN2CCCCC2Cn2cccn2)o1 (stereo not drawn)

Marked response:
-6.08
-25.73
-29.04
37.18
-24.92

Respectfully, I request Percent Effect for each entry included below.
1. CN(C)CCN1C2(CCN(Cc3nccs3)C2)c2ccccc2S1(=O)=O.O=C(O)C(F)(F)F.O=C(O)C(F)(F)F (stereo not drawn)
2. COCc1nc(N(C)C)ncc1C(=O)NC(C)c1ccccc1 (stereo not drawn)
3. CCC1CCCCN1Cc1ncc(C(C)(C)C)o1 (stereo not drawn)
4. CNC(=O)[C@@H]1C[C@H]2CN(Cc3csc(C)n3)C[C@H]2N1C(C)C.O=C(O)C(F)(F)F.O=C(O)C(F)(F)F
5. Cc1nc(N2CCCC2)ncc1-c1cc(O)nc(N2CCCCC2)n1
6. Cc1ccccc1N1CCN(C(=O)c2cscn2)C(C)C1 (stereo not drawn)
7. Cn1ccnc1-c1nc(NC2CCCC2)ncc1-c1cccc(F)c1

Marked response:
[-461.1, -21.32, 100.3, 4.031, -25.67, -44.71, 20.44]

Required: Percent Effect, one value per compound below.
1. COc1c(CNCc2cccc(Cn3ccnc3C)c2)c(C)nn1C.Cl
2. O=C(c1ccc(=O)[nH]c1)N1CCC(Oc2cccc(C(F)(F)F)c2)CC1
3. O=C(Nc1cccnc1)C1Cc2nc(-c3ccsc3)sc2N1CC1CC1.O=C(O)C(F)(F)F (stereo not drawn)
4. CN(C)C1COC2(CCN(Cc3nccs3)CC2)C1.O=C(O)C(F)(F)F.O=C(O)C(F)(F)F (stereo not drawn)
5. CSc1ncc(C(=O)N2CCN(c3ccccc3C)CC2C)cn1 (stereo not drawn)

Marked response:
1: -2.374; 2: 9.238; 3: 60.89; 4: -5.42; 5: -20.66

====

# System: Trypanosoma brucei
# Protocol: Trypanosoma brucei 72 hour study
# Assay type: functional, organism-based
# Parameters: scale not given: in the data most compounds retested in dose-response had high values
# Test Conditions: 30.3 µM; […]
The whole screen tested about 66,000 compounds, of which about 960 (1.5%) showed an effect of 50% or more. The sample holds strong results, similar compounds and a random draw of the others, so the mix is not that of the screen.
Rule: measured Percent Effect below 10% gets True; anything equal to or greater than 10% gets False.

Would you please look over these solved cases?
INSERT INTO results (compound, group_label) VALUES
  ('Fc1cccc(CN2CCC[C@H](Cn3nnc(-c4ccccn4)n3)C2)c1', 'True'),
  ('CN(C)Cc1nn(C)c2c1CN(C(=O)c1cccc(C#N)c1)C2', 'True'),
  ('CCOc1ncccc1CNC(=O)NC1CCOc2ccccc21 (stereo unspecified)', 'True'),
  ('Cc1c(C(=O)N2CCN(C)CC2)n(C)c2ccc(Cl)cc12', 'False'),
  ('CN1CCC(CCc2ccnc(NC(=O)c3ccccn3)c2)CC1', 'False');

Exam item: Dear colleague, could you confirm whether Percent Effect of Cc1c(C(=O)N2CCN(c3ncccn3)CC2)n(C)c2ccc(Cl)cc12 falls below 10%? Thanks.
Marked response: False

Exam item: Field: below-cutoff. Rule: recorded Percent Effect strictly less than 10%. Subject: COCCn1cc2c(n1)C(CNCc1ccsc1)OCC2.O=C(O)C(F)(F)F (stereo unspecified)
Marked response: True

Exam item: Does the reported Percent Effect of the following compound sit strictly below 10%? CC(=O)N1CCC(CCc2ccnc(Nc3ccccn3)c2)CC1
Marked response: False

Exam item: Quick check: Percent Effect of Fc1ccccc1CN1CCC[C@@H](Cn2nnc(-c3cccs3)n2)C1 under 10%?
Marked response: True

Exam item: State whether 10% exceeds Percent Effect recorded for O=C(CO)N1CCC(CCc2ccnc(Nc3cnccn3)c2)CC1 .
Marked response: False

Exam item: Threshold test, Percent Effect < 10%: COCCN1C[C@H]2CC[C@@H]1CN(C(=O)CCn1cc(Cl)cn1)C2
Marked response: True

====

# Tested on: Trypanosoma brucei
# Protocol: Trypanosoma brucei 72 hour study
# Assay type: functional, organism-based
# Parameters: scale not given: in the data most compounds retested in dose-response had high values
# Test Conditions: 30 µM; 30.03 µM
The campaign covered roughly 66,000 compounds. About 960 (1.5%) showed an effect of 50% or more. The sample holds strong results, similar compounds and a random draw of the others, so the mix is not that of the screen.
Hi there, I'd appreciate the recorded Percent Effect for every entry that follows.
Give bare numbers, in %.

Example compounds with recorded Percent Effect:
INSERT INTO assay_data (compound, reported_value) VALUES
  ('Cl.O=C(NCc1ccccc1F)C1=NOC2(CCNC2)C1 (stereo not given)', 32.02),
  ('Cc1nc(-c2ncc(C(=O)NCCNc3ncccc3C)c(O)n2)cs1', -1.041),
  ('Cc1nc(C)n(CC2CCCN(c3ncnc4[nH]ccc34)C2)n1 (stereo not given)', 50.76),
  ('Cc1ccc(CN2C[C@@H]3CCCO[C@@H]3[C@H](N(C)Cc3ccco3)C2)o1.O=C(O)C(F)(F)F.O=C(O)C(F)(F)F', 25.08),
  ('Cc1cccnc1N1CCN(C(=O)C(C)n2ccnc2C(C)C)CC1 (stereo not given)', 78.55),
  ('CCOc1cccc(CNc2ccccc2Cl)c1O', -19.48),
  ('O=C(Cn1nnn(-c2cccs2)c1=O)NCC1CCOC1 (stereo not given)', 53.07),
  ('CC(O)CNc1nc(-c2cccnc2)nc2c1CCC2 (stereo not given)', 5.601);

Batch request: Percent Effect for each of the following compounds.
1. CC(C)N(C)Cc1cnc2n1CCN(CCc1ccccc1)C2.O=C(O)C(F)(F)F.O=C(O)C(F)(F)F
2. Cc1nc(C)c(S(=O)(=O)NC(=O)c2ccoc2)s1
3. O=C1N(Cc2ccc(F)c(F)c2)CCCC12CCN(C1CCCC1)C2 (stereo not given)
4. c1cc(N2CCC(CN3CCOCC3)CC2)c2sccc2n1
5. COc1cccc(OC)c1CN1CC(=O)N(c2ccc(C)cc2)CC1C (stereo not given)
6. COc1cc(C(=O)N(CCC#N)Cc2ccccn2)ccc1C
7. Cc1cc(N2CCN(C(=O)C(C)n3ccnc3C(C)C)CC2)cc(C)n1 (stereo not given)
8. CC1CCCN(CCNC(=O)c2ccn(-c3ccccc3)n2)C1 (stereo not given)

Marked response:
1: 55.49; 2: -10.98; 3: -86.64; 4: -9.098; 5: 102.6; 6: 33.36; 7: -26.06; 8: 26.82
